What Postemergence herbicidal rating TRZAWR was measured for each of the following?
system: TRZAWR Wheat, Winter, cv Riband; assay: Postemergence herbicidal evaluation, TRZAWR; format: in vivo, Triticum aestivum; design: scale not given here; details: 0.032 kg/ha, postemergence spray, rated about two-three weeks after treatment
Answers are plain numbers.

Known results for compounds:
| compound | Postemergence herbicidal rating TRZAWR |
| --- | --- |
| COCc1ccccc1-n1nnc2cc(F)c(-n3c(=O)cc(C(F)(F)F)n(C)c3=O)cc21 | 3.0 |
| Cc1ccc(OCC(=O)O)cc1-n1nnc2cc(F)c(-n3c(=O)cc(C(F)(F)F)n(C)c3=O)cc21 | 5.5 |
| CCc1ccc(-n2nnc3cc(F)c(-n4c(=O)cc(C(F)(F)F)n(C)c4=O)cc32)cc1 | 4.0 |

Give measured Postemergence herbicidal rating TRZAWR for every item shown.
1. COC(=O)C(C)Oc1ccc(C)cc1-n1nnc2cc(F)c(-n3c(=O)cc(C(F)(F)F)n(C)c3=O)cc21 (stereo not drawn)
2. COc1ccc(-n2nnc3cc(F)c(-n4c(=O)cc(C(F)(F)F)n(C)c4=O)cc32)cc1
3. Cc1cc(O)ccc1-n1nnc2cc(F)c(-n3c(=O)cc(C(F)(F)F)n(C)c3=O)cc21
4. Cc1ccc(O)c(-n2nnc3cc(F)c(-n4c(=O)cc(C(F)(F)F)n(C)c4=O)cc32)c1
5. COC(=O)COc1ccc(C)cc1-n1nnc2cc(F)c(-n3c(=O)cc(C(F)(F)F)n(C)c3=O)cc21
6. Cn1c(C(F)(F)F)cc(=O)n(-c2cc3c(cc2F)nnn3-c2ccc(OCC(=O)O)cc2)c1=O

1: 8.0; 2: 4.5; 3: 2.0; 4: 3.0; 5: 7.0; 6: 3.5

# per-item lookup of Postemergence herbicidal rating TRZAWR; items listed below
1. CCc1ccc(-n2nnc3cc(F)c(-n4c(=O)cc(C(F)(F)F)n(C)c4=O)cc32)cc1COC
2. C#CCOC(=O)COc1ccc(C)cc1-n1nnc2cc(F)c(-n3c(=O)cc(C(F)(F)F)n(C)c3=O)cc21
3. COc1ccc(-n2nnc3cc(F)c(-n4c(=O)cc(C(F)(F)F)n(C)c4=O)cc32)c(C)c1
4. C=CCOc1ccc(C)cc1-n1nnc2cc(F)c(-n3c(=O)cc(C(F)(F)F)n(C)c3=O)cc21
5. C#CCOC(=O)COc1ccc(C)c(-n2nnc3cc(F)c(-n4c(=O)cc(C(F)(F)F)n(C)c4=O)cc32)c1
6. Cc1ccc(O)cc1-n1nnc2cc(F)c(-n3c(=O)cc(C(F)(F)F)n(C)c3=O)cc21

4.5
5.5
2.5
3.0
6.0
2.5
